# TARGET_DESC: SMYD2 (Homo sapiens (Human))
# Sequence (Q9NRG4 whole entry): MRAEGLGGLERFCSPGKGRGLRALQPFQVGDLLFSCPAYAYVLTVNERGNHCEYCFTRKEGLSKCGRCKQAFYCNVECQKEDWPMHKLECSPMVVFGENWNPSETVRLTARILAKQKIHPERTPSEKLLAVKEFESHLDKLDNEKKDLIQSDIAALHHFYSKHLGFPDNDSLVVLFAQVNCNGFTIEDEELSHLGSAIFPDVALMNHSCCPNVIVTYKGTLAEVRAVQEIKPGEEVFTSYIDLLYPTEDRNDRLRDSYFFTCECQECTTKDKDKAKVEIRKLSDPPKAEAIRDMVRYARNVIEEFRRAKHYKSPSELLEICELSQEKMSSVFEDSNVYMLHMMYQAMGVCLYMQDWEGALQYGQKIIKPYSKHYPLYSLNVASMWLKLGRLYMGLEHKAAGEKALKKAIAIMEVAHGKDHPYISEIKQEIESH
# TEST_DESCRIPTION: SMYD2 biochemical assay (SMYD2 enzyme assay on peptide substrate, 3H-SAM Flashplate)
# SETTINGS: read-out: SMYD2 Biochem IC50; IC50 values are an average of n = 1 to n = 50
pIC50: −log10 of the molar value.
MEASURED_METRIC: pIC50

COMPOUND | pIC50
O=C(NC1CN(C(c2ccc(OCc3ccccc3)cc2)C(F)(F)F)C1)c1cn(C2CC2)nn1 (stereo not drawn) | < 4.30
O=C(NC1CN(Cc2cn(Cc3ccccc3)nn2)C1)c1cn(C2CC2)nn1 | 4.95

We now examine a further compound.
Enquiry: What does the record list as pIC50 for O=C(NC1CN(Cc2cncn2Cc2ccccc2)C1)c1cn(C2CC2)nn1 ?
Return: < 4.30

====

Field: IC50. Provide a value for each of the compounds that follow.
# TARGET_DESC: SMYD3 (Homo sapiens (Human), UniProt Q9H7B4)
# Sequence (Q9H7B4 whole entry): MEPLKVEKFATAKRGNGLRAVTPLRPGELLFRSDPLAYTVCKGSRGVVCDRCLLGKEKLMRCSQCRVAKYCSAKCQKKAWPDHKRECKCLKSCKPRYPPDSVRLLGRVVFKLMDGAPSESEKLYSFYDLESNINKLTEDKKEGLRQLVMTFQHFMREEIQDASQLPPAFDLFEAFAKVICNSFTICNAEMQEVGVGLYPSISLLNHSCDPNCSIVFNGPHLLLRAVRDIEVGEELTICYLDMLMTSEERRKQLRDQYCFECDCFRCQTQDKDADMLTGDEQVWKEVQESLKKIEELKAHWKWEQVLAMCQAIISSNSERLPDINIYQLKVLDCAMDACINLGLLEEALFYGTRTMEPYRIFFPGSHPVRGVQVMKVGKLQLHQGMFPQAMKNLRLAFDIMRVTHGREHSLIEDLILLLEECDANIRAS
# TEST_DESCRIPTION: SMYD3 biochemical assay (SMYD3 enzyme assay on MEKK2 protein substrate, 3H-SAM scintillation proximity assay)
# SETTINGS: Table 3A; average of n = 1 to n = 50; read-out: SMYD3 Biochem IC50
Structures can show the parent of a compound that is named as a salt.
One number for each entry, in nM.

Worked examples follow.
COMPOUND | IC50 / nM
NC1CCN(S(=O)(=O)N2[C@@H]3CC[C@H]2C[C@@H](NC(=O)c2nnc(C4CC4)s2)C3)CC1 | 55.8
O=C(N[C@H]1C[C@H]2CC[C@@H](C1)N2S(=O)(=O)CC1CCNCC1)c1ccc2c(c1)OC(F)(F)O2 | 232
CN1C(=O)Cc2cc(C(=O)N[C@H]3C[C@H]4CC[C@@H](C3)N4S(=O)(=O)CC3CCNCC3)c(Cl)cc21 | 52.3
O=C1Cc2cc(C(=O)N[C@H]3C[C@H]4CC[C@@H](C3)N4S(=O)(=O)C[C@H]3CCCNC3)c(Cl)cc2N1 | 4.12
Cc1cc2c(cc1C(=O)N[C@H]1C[C@H]3CC[C@@H](C1)N3S(=O)(=O)N1CCC(N)CC1)CC(=O)N2 | 15.6
NCCCS(=O)(=O)N1CCC(NC(=O)c2cc3c(cc2Cl)NC(=O)C3)CC1 | 77.5
O=C1Cc2cc(C(=O)N[C@H]3C[C@H]4CC[C@@H](C3)N4S(=O)(=O)N3CCC(NCc4ccccc4)CC3)ccc2N1 | 1.98
C[C@H]1Oc2ccc(C(=O)N[C@H]3C[C@H]4CC[C@@H](C3)N4S(=O)(=O)CC3CCNCC3)cc2NC1=O [Cpd. No. 625, Hydrochloride] | 185

Enquiry: Entry CCc1cc(C(=O)N[C@@H]2CCN(S(=O)(=O)N3CCC(N)CC3)[C@@H](C)C2)ns1 has what IC50?
Return: 326

====

# TARGET_DESC: UniProt:Q9H7B4
# TEST_DESCRIPTION: SMYD3 biochemical assay (SMYD3 enzyme assay on MEKK2 protein substrate, 3H-SAM scintillation proximity assay)
# SETTINGS: read-out: SMYD3 Biochem IC50
pIC50: −log10 of the molar value.
Please provide measured pIC50 for the entries that follow.

Answered cases to consult:
COMPOUND | pIC50
Cc1nscc1C(=O)N[C@H]1CC[C@H](NC(=O)CCN)CC1 | < 4.00
CC(NC(=O)c1cc2cn[nH]c2cn1)C1CCN(C(=O)[C@H](C)N)CC1 (some centres unmarked) | 5.18
NCCC(=O)N[C@H]1CC[C@H](NC(=O)c2cn3ncccc3n2)CC1 | < 4.00
Cc1ccc(C(=O)N[C@H]2CC[C@H](NC(=O)CCN)CC2)cn1 | < 4.00
Cc1cc(C(=O)NC(C)C2CCN(C(=O)[C@H](C)N)CC2)ccn1 (some centres unmarked) | < 4.00

Hey, can you go through the list below and give me pIC50 for every item?
1. Cc1nscc1C(=O)NC(C)C1CCN(C(=O)[C@H](C)N)CC1 (some centres unmarked)
2. Cc1nc2ccccc2c(C(=O)N[C@H]2CC[C@H](N)CC2)c1N
3. Cc1c(C(=O)NC(C)C2CCN(C(=O)[C@H](C)N)CC2)nnn1-c1ccccc1 (some centres unmarked)
4. CC(NC(=O)c1cccc2c1CC(=O)N2)C1CCN(C(=O)[C@H](C)N)CC1 (some centres unmarked)
5. NC1CCC(NC(=O)c2c[nH]cn2)CC1 (centres unmarked)
6. Cc1cnccc1C(=O)N[C@H]1CC[C@H](N)CC1

Return:
< 4.00
< 4.00
< 4.00
< 4.00
< 4.30
< 4.00
